- targetDesc: T1, recombinant human C1r2s2 tetramer (human, UniProt P09871 16-688; P00736 18-705)
- T1 construct: C1s and C1r co-expressed in HEK293 and purified from the supernatant as tetramer; also called hC1r2s2
- T1 chain 1: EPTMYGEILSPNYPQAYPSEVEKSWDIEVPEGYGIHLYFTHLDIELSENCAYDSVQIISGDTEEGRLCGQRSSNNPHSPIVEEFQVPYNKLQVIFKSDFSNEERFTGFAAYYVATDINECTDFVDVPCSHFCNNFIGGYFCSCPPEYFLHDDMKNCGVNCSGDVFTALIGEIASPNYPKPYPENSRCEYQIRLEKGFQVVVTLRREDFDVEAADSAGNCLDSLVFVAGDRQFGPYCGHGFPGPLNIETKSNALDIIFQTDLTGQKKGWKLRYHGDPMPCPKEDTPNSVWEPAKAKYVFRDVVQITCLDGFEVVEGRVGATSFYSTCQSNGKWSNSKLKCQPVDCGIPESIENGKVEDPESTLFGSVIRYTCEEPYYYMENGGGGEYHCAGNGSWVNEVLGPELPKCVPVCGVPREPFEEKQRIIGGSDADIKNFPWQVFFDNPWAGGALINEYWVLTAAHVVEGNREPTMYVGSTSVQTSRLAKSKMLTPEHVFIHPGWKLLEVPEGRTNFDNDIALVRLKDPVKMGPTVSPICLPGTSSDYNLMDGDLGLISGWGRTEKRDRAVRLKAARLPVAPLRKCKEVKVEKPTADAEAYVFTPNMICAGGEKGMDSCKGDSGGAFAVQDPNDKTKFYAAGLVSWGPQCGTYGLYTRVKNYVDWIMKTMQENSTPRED
- T1 chain 2: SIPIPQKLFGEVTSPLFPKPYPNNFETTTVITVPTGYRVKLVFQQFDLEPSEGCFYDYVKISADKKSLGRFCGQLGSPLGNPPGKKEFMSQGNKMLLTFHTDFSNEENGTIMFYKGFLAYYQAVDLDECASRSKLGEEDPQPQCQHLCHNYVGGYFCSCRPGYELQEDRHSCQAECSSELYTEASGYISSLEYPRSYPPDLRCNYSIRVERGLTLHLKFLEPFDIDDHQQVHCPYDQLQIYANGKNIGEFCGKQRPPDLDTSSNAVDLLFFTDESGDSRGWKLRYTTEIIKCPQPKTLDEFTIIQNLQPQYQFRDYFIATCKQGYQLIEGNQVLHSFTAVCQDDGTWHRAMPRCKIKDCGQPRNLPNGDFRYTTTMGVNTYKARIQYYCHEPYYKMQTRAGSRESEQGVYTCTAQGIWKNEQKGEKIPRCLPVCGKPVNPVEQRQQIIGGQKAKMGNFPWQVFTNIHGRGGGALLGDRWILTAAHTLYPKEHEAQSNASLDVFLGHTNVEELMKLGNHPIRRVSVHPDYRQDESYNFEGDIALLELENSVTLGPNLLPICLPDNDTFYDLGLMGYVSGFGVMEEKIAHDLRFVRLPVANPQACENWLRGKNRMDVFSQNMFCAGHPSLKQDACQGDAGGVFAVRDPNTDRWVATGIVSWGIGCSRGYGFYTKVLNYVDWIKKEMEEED
- protocolNotes: SPR (Biacore T200), 37 C; ratio of KD at pH 6.0 to KD at pH 7.4
The following binders are listed with their measured KD (pH 6.0)/KD (pH 7.4) values.
Give a plain numeric answer without units written out.

# binder, property, numericValue
measured = [
    ("COS0637pHv15-G1A3FcgSil+LowpI (antibody, V domains shown, VH 24, VL 59, CH 45 (G1A3FcgSil+LowpI), CL 23) VH: QVQLVESGGGVVQPGRSLRLSCAASGFTFSAYAMNWIRQPPGKGLEWIGLIYGSGHEFYASWAEERVTISVDTSKNQFSLKLSSVTAADTAVYYCARGRSKNYNSDFHLWGQGTLVTVSS VL: DIQMTQSPSSLSASVGDRVTITCQANEILHDKKNLAWYQQKPGQPPKLLIYGASTLESGVPSRFSGSGSGTDFTLTISSLQPEDFATYYCHGEFSYHSADLNTFGQGTKVEIKR", "KD (pH 6.0)/KD (pH 7.4)", 797),
    ("COS0637pHv3-TT91R (antibody, human IgG1, V domains shown, Modified human IgG1 constant region TT91R, light chain constant region SK1) VH: QVQLVESGGGVVQPGRSLRLSCAASGFTFSAYAMNWIRQPPGKGLEWIGLIYGSGHEFYASWAEERVTISVDTSKNQFSLKLSSVTAADTAVYYCARGRSKNYVSGFHLWGQGTLVTVSS VL: DIQMTQSPSSLSASVGDRVTITCQASQILHDKKNLAWYQQKPGQPPKLLIYQASQLESGVPSRFSGSGSGTDFTLTISSLQPEDFATYYCHGEFSYESADLNQFGQGTKVEIKR", "KD (pH 6.0)/KD (pH 7.4)", 26.5),
]

Continue with the binder presented below.
Problem: Need KD (pH 6.0)/KD (pH 7.4) of COS0637pHv21-G1A3FcgSil+LowpI (antibody, V domains shown, VH 24, VL 47, CH 45, CL 23) VH: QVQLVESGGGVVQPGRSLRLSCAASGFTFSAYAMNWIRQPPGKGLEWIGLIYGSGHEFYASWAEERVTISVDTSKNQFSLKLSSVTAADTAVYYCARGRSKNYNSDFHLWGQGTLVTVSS VL: DIQMTQSPSSLSASVGDRVTITCQAHEILHDKKNLAWYQQKPGQPPKLLIYSASILESGVPSRFSGSGSGTDFTLTISSLQPEDFATYYCHGEFSHGSGDLNHFGQGTKVEIKR , thanks.
Result: 120
